# experimental.system: JAK1 (Homo sapiens, UniProt P23458)
# Construct: purchased Invitrogen
# Sequence (P23458 whole entry): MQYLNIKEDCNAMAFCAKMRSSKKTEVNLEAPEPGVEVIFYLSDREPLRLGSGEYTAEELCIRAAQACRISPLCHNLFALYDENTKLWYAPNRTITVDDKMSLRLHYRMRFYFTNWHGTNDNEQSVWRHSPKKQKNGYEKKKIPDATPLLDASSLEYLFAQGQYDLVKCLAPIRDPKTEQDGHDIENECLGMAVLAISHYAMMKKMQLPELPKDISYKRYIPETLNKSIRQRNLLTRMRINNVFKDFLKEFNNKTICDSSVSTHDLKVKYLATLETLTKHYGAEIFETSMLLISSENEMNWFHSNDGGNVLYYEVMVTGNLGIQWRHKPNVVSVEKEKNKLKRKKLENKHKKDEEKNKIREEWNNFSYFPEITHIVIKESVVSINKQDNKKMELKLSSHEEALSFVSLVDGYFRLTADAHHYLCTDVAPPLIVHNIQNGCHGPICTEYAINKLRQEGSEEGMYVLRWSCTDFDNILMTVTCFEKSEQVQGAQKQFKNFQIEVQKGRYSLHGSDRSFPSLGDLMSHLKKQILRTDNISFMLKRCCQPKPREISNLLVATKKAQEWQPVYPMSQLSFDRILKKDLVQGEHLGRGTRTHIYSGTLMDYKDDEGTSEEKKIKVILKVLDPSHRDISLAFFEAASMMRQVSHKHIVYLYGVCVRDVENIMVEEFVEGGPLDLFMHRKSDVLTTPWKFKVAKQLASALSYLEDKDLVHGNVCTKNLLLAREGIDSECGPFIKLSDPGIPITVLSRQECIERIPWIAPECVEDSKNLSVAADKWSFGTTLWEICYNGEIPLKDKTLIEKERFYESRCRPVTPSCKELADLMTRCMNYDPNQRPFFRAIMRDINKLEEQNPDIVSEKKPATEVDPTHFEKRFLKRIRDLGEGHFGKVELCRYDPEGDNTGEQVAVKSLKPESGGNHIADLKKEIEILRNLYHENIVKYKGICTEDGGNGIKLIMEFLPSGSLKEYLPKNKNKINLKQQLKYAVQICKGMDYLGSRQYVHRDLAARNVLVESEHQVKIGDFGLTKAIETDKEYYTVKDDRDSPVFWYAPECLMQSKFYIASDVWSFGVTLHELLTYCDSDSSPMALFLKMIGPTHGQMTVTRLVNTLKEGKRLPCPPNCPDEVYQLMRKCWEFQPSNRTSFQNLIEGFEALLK
# method.description: JAK1 enzyme inhibition test (LANCE method)
# Type: biochemical
# measurement.parameters: 1 μM test compound; 1 µM
Task for the reader: assign each of the following compounds its reported JAK1 enzyme inhibitory activity (%, 1 μM).
All answers are understood in %, so give the number only.

Any idea what JAK1 enzyme inhibitory activity (%, 1 μM) was measured for CC1CCCCC1n1cc(-c2cc(N3CCOCC3)n(C)n2)c2[nH]nc(N)c2c1=O (stereo not drawn) [Example 155] ? 76

Any idea what JAK1 enzyme inhibitory activity (%, 1 μM) was measured for CC(C)[C@H](C)n1cc(-c2cc(N3CCN4CCCC4C3)n(C)n2)c2[nH]nc(N)c2c1=O (stereo partly drawn) [Example 62] ? 97

Any idea what JAK1 enzyme inhibitory activity (%, 1 μM) was measured for COC1(c2cc(-c3cn(C(C#N)C(C)C)c(=O)c4c(N)n[nH]c34)nn2C)CCC(F)(F)CC1 (stereo not drawn) [Example 138] ? 96

Any idea what JAK1 enzyme inhibitory activity (%, 1 μM) was measured for CC1CCCCC1n1cc(-c2cc(C(C)(C)O)n(C)n2)c2[nH]nc(N)c2c1=O (stereo not drawn) [Example 120] ? 100

Any idea what JAK1 enzyme inhibitory activity (%, 1 μM) was measured for COC1(c2cc(-c3cn(C(C#N)C(C)C)c(=O)c4c(N)n[nH]c34)nn2C)CCC(F)(F)CC1 (stereo not drawn) [Example 137] ? 92

Any idea what JAK1 enzyme inhibitory activity (%, 1 μM) was measured for CC1CCCCC1n1cc(-c2cc(C(C)(C)O)n(C)n2)c2[nH]nc(N)c2c1=O (stereo not drawn) [Example 119] ? 99

Any idea what JAK1 enzyme inhibitory activity (%, 1 μM) was measured for CC(C)C(C#N)n1cc(-c2cc(N3CCOCC3)n(C)n2)c2[nH]nc(N)c2c1=O (stereo not drawn) [Example 114] ? 68

Any idea what JAK1 enzyme inhibitory activity (%, 1 μM) was measured for CC(C)C(C#N)n1cc(-c2cc(N3CCOCC3)n(C)n2)c2[nH]nc(N)c2c1=O (stereo not drawn) [Example 113] ? 97

Any idea what JAK1 enzyme inhibitory activity (%, 1 μM) was measured for Cn1nc(-c2cn(C3CCCC3(C)C)c(=O)c3c(N)n[nH]c23)cc1N1CCOCC1 (stereo not drawn) [Example 77] ? 79

Any idea what JAK1 enzyme inhibitory activity (%, 1 μM) was measured for CC1CN(c2cc(-c3cn([C@@H](C)C(C)C)c(=O)c4c(N)n[nH]c34)nn2C)CCO1 (stereo partly drawn) [Example 59] ? 97

Any idea what JAK1 enzyme inhibitory activity (%, 1 μM) was measured for Cn1nc(-c2cn(C3CCCC3(C)C)c(=O)c3c(N)n[nH]c23)cc1CN1CCS(=O)(=O)CC1 (stereo not drawn) [Example 74] ? 98

Any idea what JAK1 enzyme inhibitory activity (%, 1 μM) was measured for CC1CCCCC1n1cc(-c2cc(C(C)(C)O)n(C)n2)c2[nH]nc(N)c2c1=O (stereo not drawn) [Example 118] ? 98

Any idea what JAK1 enzyme inhibitory activity (%, 1 μM) was measured for CC(C)[C@H](C)n1cc(-c2cc(N3CCCC3CN(C)C)n(C)n2)c2[nH]nc(N)c2c1=O (stereo partly drawn) [Example 104] ? 72

Any idea what JAK1 enzyme inhibitory activity (%, 1 μM) was measured for CC1CN(c2cc(-c3cn([C@@H](C)C(C)C)c(=O)c4c(N)n[nH]c34)nn2C)CCO1 (stereo partly drawn) [Example 60] ? 96

Any idea what JAK1 enzyme inhibitory activity (%, 1 μM) was measured for CC(C)[C@H](C)n1cc(-c2cc(N3CCC(C)(O)C3)n(C)n2)c2[nH]nc(N)c2c1=O (stereo partly drawn) [Example 64] ? 97
